Molecular target: Adenosine receptor A3 (Homo sapiens) (UniProt P0DMS8)
Sequence (whole entry): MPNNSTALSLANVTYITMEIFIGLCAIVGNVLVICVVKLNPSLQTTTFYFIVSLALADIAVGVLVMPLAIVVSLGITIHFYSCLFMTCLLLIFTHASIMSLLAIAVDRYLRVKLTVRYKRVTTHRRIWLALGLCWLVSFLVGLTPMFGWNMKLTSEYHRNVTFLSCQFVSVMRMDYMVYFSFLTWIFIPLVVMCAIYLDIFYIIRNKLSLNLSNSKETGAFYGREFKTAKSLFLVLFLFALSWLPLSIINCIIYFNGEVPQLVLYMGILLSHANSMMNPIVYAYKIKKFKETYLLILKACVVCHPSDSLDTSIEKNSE
Assay: Maximum efficacy at human recombinant adenosine A3 receptor expressed in CHO cells assessed as inhibition of cAMP production at 10 uM relative to NECA
Type: functional, cell-based
measurement name: Efficacy (%)

[
  {
    "smiles record": "CCNC(=O)[C@H]1O[C@@H](n2cnc3c(NC(=N)N)ncnc32)[C@H](O)[C@@H]1O",
    "measurement name": "Efficacy",
    "reported measurement": 100
  },
  {
    "smiles record": "Nc1nc(OCCc2ccccc2F)nc2c1ncn2[C@@H]1O[C@H](CO)[C@@H](O)[C@H]1O",
    "measurement name": "Efficacy",
    "reported measurement": 45
  },
  {
    "smiles record": "Nc1nc(OCCc2c[nH]c3ccccc23)nc2c1ncn2[C@@H]1O[C@H](CO)[C@@H](O)[C@H]1O",
    "measurement name": "Efficacy",
    "reported measurement": 17
  },
  {
    "smiles record": "Nc1nc(OCCc2ccc(F)cc2)nc2c1ncn2[C@@H]1O[C@H](CO)[C@@H](O)[C@H]1O",
    "measurement name": "Efficacy",
    "reported measurement": 74
  },
  {
    "smiles record": "CCNc1nc(OCCc2c[nH]c3ccccc23)nc2c1ncn2[C@@H]1O[C@H](CO)[C@@H](O)[C@H]1O",
    "measurement name": "Efficacy",
    "reported measurement": 54
  },
  {
    "smiles record": "COc1ccc2c(c1)c(CCOc1nc(N)c3ncn([C@@H]4O[C@H](CO)[C@@H](O)[C@H]4O)c3n1)c(C)n2S(=O)(=O)c1ccc(C)cc1",
    "measurement name": "Efficacy",
    "reported measurement": 3
  },
  {
    "smiles record": "Nc1nc(OCCn2cnc3ccccc32)nc2c1ncn2[C@@H]1O[C@H](CO)[C@@H](O)[C@H]1O",
    "measurement name": "Efficacy",
    "reported measurement": 3
  },
  {
    "smiles record": "Nc1nc(OCCc2c[nH]c3ccc(I)cc23)nc2c1ncn2[C@@H]1O[C@H](CO)[C@@H](O)[C@H]1O",
    "measurement name": "Efficacy",
    "reported measurement": -5
  }
]

----------
target: UniProt:P29275; assay: Agonist activity at human adenosine A2B receptor expressed in CHO cells assessed as stimulation of cAMP production at 10 uM; type: functional, cell-based
Sequence (P29275 whole entry): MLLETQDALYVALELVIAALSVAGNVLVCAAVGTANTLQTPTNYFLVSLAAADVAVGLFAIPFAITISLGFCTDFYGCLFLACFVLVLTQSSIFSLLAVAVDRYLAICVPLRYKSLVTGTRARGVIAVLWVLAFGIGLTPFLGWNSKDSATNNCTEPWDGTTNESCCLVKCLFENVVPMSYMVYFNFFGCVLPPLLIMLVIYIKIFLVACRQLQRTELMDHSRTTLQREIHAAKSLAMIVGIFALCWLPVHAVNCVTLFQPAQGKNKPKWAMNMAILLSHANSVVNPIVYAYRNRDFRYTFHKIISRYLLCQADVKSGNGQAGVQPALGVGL
measurement name: Activity (%)

[
  {
    "smiles record": "Nc1nc(OCCn2cnc3ccccc32)nc2c1ncn2[C@@H]1O[C@H](CO)[C@@H](O)[C@H]1O",
    "units label": "%",
    "reported measurement": 0
  },
  {
    "smiles record": "Nc1nc(OCCc2cccc(F)c2)nc2c1ncn2[C@@H]1O[C@H](CO)[C@@H](O)[C@H]1O",
    "units label": "%",
    "reported measurement": 64
  },
  {
    "smiles record": "COc1ccc2c(c1)c(CCOc1nc(N)c3ncn([C@@H]4O[C@H](CO)[C@@H](O)[C@H]4O)c3n1)c(C)n2S(=O)(=O)c1ccc(C)cc1",
    "units label": "%",
    "reported measurement": 24
  },
  {
    "smiles record": "Nc1nc(OCCc2c[nH]c3c(Br)cccc23)nc2c1ncn2[C@@H]1O[C@H](CO)[C@@H](O)[C@H]1O",
    "units label": "%",
    "reported measurement": 43
  },
  {
    "smiles record": "Nc1nc(OCCC2CCCCC2)nc2c1ncn2[C@@H]1O[C@H](CO)[C@@H](O)[C@H]1O",
    "units label": "%",
    "reported measurement": 36
  },
  {
    "smiles record": "Cc1ccc(S(=O)(=O)n2c(CCOc3nc(N)c4ncn([C@@H]5O[C@H](CO)[C@@H](O)[C@H]5O)c4n3)cc3ccccc32)cc1",
    "units label": "%",
    "reported measurement": 32
  },
  {
    "smiles record": "Cc1ccc(S(=O)(=O)n2cc(CCOc3nc(NC(=N)N)c4ncn([C@@H]5O[C@H](CO)[C@@H](O)[C@H]5O)c4n3)c3ccccc32)cc1",
    "units label": "%",
    "reported measurement": 42
  }
]
